tested.system: Jun bZIP K258A;Fos bZIP R143A (human;human, UniProt P05412;P01100 252-315;137-200, K258A|R143A)
Sequence (P05412 252-315 K258A, chain 1 of 2): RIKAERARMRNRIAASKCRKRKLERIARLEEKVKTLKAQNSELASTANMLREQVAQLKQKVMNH
Sequence (P01100 137-200 R143A, chain 2 of 2): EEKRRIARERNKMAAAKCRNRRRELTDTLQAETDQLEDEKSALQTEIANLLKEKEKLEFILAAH
protocol.description: ITC
measure: Kd

[
  {
    "binder": "TRE duplex 15-mer (dsDNA) DNA 1: CGCGTGACTCACCCC DNA 2: GGGGTGAGTCACGCG",
    "meas.value": "860 nM"
  }
]
